Where these numbers come from: the supplement of paper PMC10307832

// reported relative viability for each item listed
# Tested on: NCI-H1651
# MEASUREMENT_NOTES: relative viability (nuclei count vs DMSO), 5 days (fraction); higher = more cells survive
# PARTICULARS: first compound 0.002 µM
Answer with a bare number; do not write a unit.

COMPOUND	relative viability
CCNC(=O)c1noc(-c2cc(C(C)C)c(O)cc2O)c1-c1ccc(CN2CCOCC2)cc1 [Luminespib] + CS(=O)(=O)N1CCN(Cc2cc3nc(-c4cccc5[nH]ncc45)nc(N4CCOCC4)c3s2)CC1 [Pictilisib] (partner 1 µM)	0.592

q: # return relative viability of CCNC(=O)c1noc(-c2cc(C(C)C)c(O)cc2O)c1-c1ccc(CN2CCOCC2)cc1 [Luminespib] + O=C(c1cc(Cc2n[nH]c(=O)c3ccccc23)ccc1F)N1CCN(C(=O)C2CC2)CC1 [Olaparib] (partner 8 µM) (system: NCI-H1651)
a: 0.195

---

# System: NCI-H1734
# MEASUREMENT_NOTES: relative viability (nuclei count vs DMSO), 5 days (fraction); higher = more cells survive
# PARTICULARS: first compound 0.03162 µM
READOUT_LABEL: relative viability
Answer with a bare number; do not write a unit.

COMPOUND	MEASURED_ON	ENDPOINT_RESULT
Cc1cn(-c2cc(NC(=O)c3ccc(C)c(Nc4nccc(-c5cccnc5)n4)c3)cc(C(F)(F)F)c2)cn1 [Nilotinib] + CC(=O)Nc1cccc(-n2c(=O)n(C3CC3)c(=O)c3c(Nc4ccc(I)cc4F)n(C)c(=O)c(C)c32)c1 [Trametinib] (partner 0.02 µM)	NCI-H1734	0.345

We now examine a further compound.
q: For the compound Cc1cn(-c2cc(NC(=O)c3ccc(C)c(Nc4nccc(-c5cccnc5)n4)c3)cc(C(F)(F)F)c2)cn1 [Nilotinib] + Cc1nc(NC(=O)N2CCC[C@H]2C(N)=O)sc1-c1ccnc(C(C)(C)C(F)(F)F)c1 [Alpelisib] (partner 2 µM) , give its reported relative viability.
a: 0.551

---

// reported relative viability for each item listed
# Tested on: EBC-1
# MEASUREMENT_NOTES: relative viability (nuclei count vs DMSO), 5 days (fraction); higher = more cells survive
# PARTICULARS: first compound 2 µM
Answer with a bare number; do not write a unit.

The cases that follow already have their relative viability on record.
COMPOUND	relative viability
CN1CCN(CCOc2cc(OC3CCOCC3)c3c(Nc4c(Cl)ccc5c4OCO5)ncnc3c2)CC1 [Saracatinib] + CS(=O)(=O)CCNCc1ccc(-c2ccc3ncnc(Nc4ccc(OCc5cccc(F)c5)c(Cl)c4)c3c2)o1 [Lapatinib] (partner 2 µM)	0.212
CN1CCN(CCOc2cc(OC3CCOCC3)c3c(Nc4c(Cl)ccc5c4OCO5)ncnc3c2)CC1 [Saracatinib] + CS(=O)(=O)N1CCN(Cc2cc3nc(-c4cccc5[nH]ncc45)nc(N4CCOCC4)c3s2)CC1 [Pictilisib] (partner 1 µM)	0.429

We now examine a further compound.
q: For the compound CN1CCN(CCOc2cc(OC3CCOCC3)c3c(Nc4c(Cl)ccc5c4OCO5)ncnc3c2)CC1 [Saracatinib] + C[C@@H](Oc1cc(-c2cnn(C3CCNCC3)c2)cnc1N)c1c(Cl)ccc(F)c1Cl [Crizotinib] (partner 1 µM) , give its reported relative viability.
a: 0.181

---

# Tested on: EMC-BAC-2
# MEASUREMENT_NOTES: relative viability (nuclei count vs DMSO), 5 days (fraction); higher = more cells survive
# PARTICULARS: first compound 0.8 µM
// reported relative viability for each item listed
Answer with a bare number; do not write a unit.

The cases that follow already have their relative viability on record.
MOLECULE	relative viability
Nc1cccc2c1CN(C1CCC(=O)NC1=O)C2=O (configuration not stated) [Lenalidomide] + CS(=O)(=O)CCNCc1ccc(-c2ccc3ncnc(Nc4ccc(OCc5cccc(F)c5)c(Cl)c4)c3c2)o1 [Lapatinib] (partner 2 µM)	0.825
Nc1cccc2c1CN(C1CCC(=O)NC1=O)C2=O (configuration not stated) [Lenalidomide] + NC(=O)Nc1cc(-c2cccc(F)c2)sc1C(=O)N[C@H]1CCCNC1 [AZD7762] (partner 0.2 µM)	0.64
Nc1cccc2c1CN(C1CCC(=O)NC1=O)C2=O (configuration not stated) [Lenalidomide] + CC(C)C[C@H](NC(=O)[C@H](Cc1ccccc1)NC(=O)c1cnccn1)B(O)O [Bortezomib] (partner 0.002 µM)	0.857
Nc1cccc2c1CN(C1CCC(=O)NC1=O)C2=O (configuration not stated) [Lenalidomide] + O=C(CCCCCCC(=O)Nc1ccccc1)NO [Vorinostat] (partner 1 µM)	0.42
Nc1cccc2c1CN(C1CCC(=O)NC1=O)C2=O (configuration not stated) [Lenalidomide] + C[C@]1(O)C[C@@H](c2nc(-c3ccc4ccc(-c5ccccc5)nc4c3)c3c(N)nccn32)C1 [Linsitinib] (partner 1 µM)	0.833

q: For the molecule Nc1cccc2c1CN(C1CCC(=O)NC1=O)C2=O (configuration not stated) [Lenalidomide] + COc1cc2c(Oc3ccc(NC(=O)C4(C(=O)Nc5ccc(F)cc5)CC4)cc3F)ccnc2cc1OCCCN1CCOCC1 [Foretinib] (partner 0.25 µM) , give its reported relative viability.
a: 0.967

q: For the molecule Nc1cccc2c1CN(C1CCC(=O)NC1=O)C2=O (configuration not stated) [Lenalidomide] + N=C(N)NC(=N)NCCc1ccccc1 [Phenformin] (partner 250 µM) , give its reported relative viability.
a: 0.525

---

# System: BEN
# MEASUREMENT_NOTES: relative viability (nuclei count vs DMSO), 5 days (fraction); higher = more cells survive
# PARTICULARS: first compound 6.325 µM
READOUT_LABEL: relative viability
Answer with a bare number; do not write a unit.

COMPOUND	MEASURED_ON	READOUT_LABEL	ENDPOINT_RESULT
Cc1csc(=NC2CCCCC2)n1/N=C/c1ccc(O)c(O)c1O [MIM1] + CS(=O)(=O)CCNCc1ccc(-c2ccc3ncnc(Nc4ccc(OCc5cccc(F)c5)c(Cl)c4)c3c2)o1 [Lapatinib] (partner 2 µM)	BEN	relative viability	0.622
Cc1csc(=NC2CCCCC2)n1/N=C/c1ccc(O)c(O)c1O [MIM1] + Cc1nc(NC(=O)N2CCC[C@H]2C(N)=O)sc1-c1ccnc(C(C)(C)C(F)(F)F)c1 [Alpelisib] (partner 2 µM)	BEN	relative viability	1.01
Cc1csc(=NC2CCCCC2)n1/N=C/c1ccc(O)c(O)c1O [MIM1] + C[C@]1(O)C[C@@H](c2nc(-c3ccc4ccc(-c5ccccc5)nc4c3)c3c(N)nccn32)C1 [Linsitinib] (partner 1 µM)	BEN	relative viability	0.826

We now examine a further compound.
q: For the compound Cc1csc(=NC2CCCCC2)n1/N=C/c1ccc(O)c(O)c1O [MIM1] + N=C(N)NC(=N)NCCc1ccccc1 [Phenformin] (partner 250 µM) , give its reported relative viability.
a: 0.28

---

# Test system: LU99A
# MEASUREMENT_NOTES: relative viability (nuclei count vs DMSO), 5 days (fraction); higher = more cells survive
# PARTICULARS: first compound 2 µM
Labelling field: enter true if recorded relative viability is less than 0.5. Enter false if it equals or exceeds that cut-off.

MOLECULE	MEASURED_ON	CLASS
Cc1csc(=NC2CCCCC2)n1/N=C/c1ccc(O)c(O)c1O [MIM1] + O=C(c1cc(Cc2n[nH]c(=O)c3ccccc23)ccc1F)N1CCN(C(=O)C2CC2)CC1 [Olaparib] (partner 8 µM)	LU99A	true
CN1CCN(CCOc2cc(OC3CCOCC3)c3c(Nc4c(Cl)ccc5c4OCO5)ncnc3c2)CC1 [Saracatinib] + COc1cc2c(Oc3ccc(NC(=O)C4(C(=O)Nc5ccc(F)cc5)CC4)cc3F)ccnc2cc1OCCCN1CCOCC1 [Foretinib] (partner 0.25 µM)	LU99A	false
Cc1csc(=NC2CCCCC2)n1/N=C/c1ccc(O)c(O)c1O [MIM1] + CC(C)C[C@H](NC(=O)[C@H](Cc1ccccc1)NC(=O)c1cnccn1)B(O)O [Bortezomib] (partner 0.002 µM)	LU99A	false

q: Please indicate whether the reported relative viability of CN1CCN(CCOc2cc(OC3CCOCC3)c3c(Nc4c(Cl)ccc5c4OCO5)ncnc3c2)CC1 [Saracatinib] + O=C(CCCCCCC(=O)Nc1ccccc1)NO [Vorinostat] (partner 1 µM) is strictly below 0.5.
a: true

q: Please indicate whether the reported relative viability of Cc1csc(=NC2CCCCC2)n1/N=C/c1ccc(O)c(O)c1O [MIM1] + N=C(N)NC(=N)NCCc1ccccc1 [Phenformin] (partner 250 µM) is strictly below 0.5.
a: false

q: Please indicate whether the reported relative viability of Cc1csc(=NC2CCCCC2)n1/N=C/c1ccc(O)c(O)c1O [MIM1] + CCNC(=O)c1noc(-c2cc(C(C)C)c(O)cc2O)c1-c1ccc(CN2CCOCC2)cc1 [Luminespib] (partner 0.01 µM) is strictly below 0.5.
a: true
